growth inhibition values by entry
Assay: NCI Yeast Anticancer Drug Screen. Data for the wt1 strain (AID 149);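 further: 0% = growth of vehicle-treated wt1 cultures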
Conditions: S. cerevisiae wt1 strain (SPY 50644) growth inhibition; at 3.7 µM; stronger effect = higher value
The panel holds about 79,000 compounds, 15% with a hit somewhere; the sample as a whole holds those more often.
Entry rule: numbers only, all in %.

| LINE_NOTATION | growth inhibition / % |
| --- | --- |
| CCCCCCCCCCCCNC(C)=O | -6 |
| Cc1ccccc1N=C(NO)c1ccccc1 | -4 |
| CC1=CC(=C(c2ccc(N)cc2)c2ccc(N)cc2)C=CC1=N | -1 |
| Cc1ccc(Sc2ccccc2N)cc1 | 6 |
| COc1ccc(/C=C/c2sc3ccccc3[n+]2CCCCI)cc1OC | -3 |

Attention now turns to another entry.
**Query** Recorded growth inhibition for CCOC(=O)c1[nH]n(-c2ccccc2)c(=O)c1C=NC(=S)C(N)=S , please?
**Result** 8

====

Assay: NCI Yeast Anticancer Drug Screen. Data for the mlh1 rad18 strain (AID 175)
Details: S. cerevisiae mlh1 rad18 strain growth inhibition; at 5.0 µM (retest, dose inferred, filed as 0.5); stronger effect = higher value
Protocol: Growth inhibition of yeast strains with defined genetic alterations is measured as a screen for potential anti-cancer activity. Selected strains with alterations in DNA damage repair or cell cycle control were exposed to compounds and growth inhibition was measured relative to vehicle treated controls. The strain used in this assay is mlh1 rad18
The panel holds about 79,000 compounds, 15% with a hit somewhere; the sample as a whole holds those more often. Activity calls are given as the source filed them. No stated cut-off is given here; in the data, active means growth inhibition above about 70%; inactive means the rest.
PROPERTY: growth inhibition

Would you please look over these solved cases?
| LINE_NOTATION | growth inhibition |
| --- | --- |
| CC1(C)CC(=O)C(/C=N/c2nc(-c3ccccc3)cs2)=C(O)C1 | 10% (inactive) |
| Cc1ccc2c3ccc4c(c3n(C)c2c1)C(=O)C=CC4=O | 21% (inactive) |

Consider now this further molecule.
**Query** Recorded growth inhibition of NC(N)=NS(=O)(=O)c1ccc(Nc2c3ccccc3nc3c(C(=O)NCCO)cccc23)cc1 , please.
**Result** -1% (inactive)

====

Assay: NCI Yeast Anticancer Drug Screen. Data for the mlh1 strain (AID 171);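 further: 0% = growth of vehicle-treated control cultures of the same strain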
Conditions: S. cerevisiae mlh1 strain growth inhibition; at 1.2 µM; stronger effect = higher value
About 79,000 compounds went through this panel and 15% of them were active in at least one assay; those are over-represented in the sample as a whole. Activity calls are given as the source filed them. No stated cut-off is given here; in the data, active means growth inhibition above about 70%; inactive means the rest.
// reported growth inhibition per item

**Query** Suppose we examine the compound O=C(NCCCl)Sc1ccc(Cl)cc1 ; what growth inhibition value has been reported?
**Result** -5% (inactive)

====

Assay: NCI Yeast Anticancer Drug Screen. Data for the mlh1 strain (AID 171);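 further: 0% = growth of vehicle-treated control cultures of the same strain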
Conditions: S. cerevisiae mlh1 strain growth inhibition; at 1.2 µM; stronger effect = higher value
This is part of a sample that, as a whole, favours compounds with a hit. Of some 79,000 tested, about 15% had one in any assay.
PROPERTY: growth inhibition (%)
Output spec: scalar in %, unitless text.

Past entries and their recorded results:
| COMPOUND | U | growth inhibition |
| --- | --- | --- |
| CC(C)C(C)/C=C\C(C)C1CCC2C3=CC=C4CC(O)CCC4(C)C3CCC21C (stereo not given) | % | -1 |
| COC(=O)/C=C(/CC(=O)OC)C(=O)OC | % | -2 |
| O=[n+]1c2ccccc2n([O-])c2cc(Br)ccc21 | % | -3 |
| Brc1ccccc1-c1ncc(-c2ccccc2)o1 | % | -4 |
| CN(C)c1ccc2c(SCC(=O)OCC(=O)[C@@]3(O)CC[C@H]4[C@@H]5CCC6=CC(=O)C=C[C@]6(C)[C@H]5C(=O)C[C@@]43C)c3ccc(N(C)C)cc3nc2c1 | % | -15 |
| Nc1ncc(-c2ccc(Br)cc2)s1 | % | -9 |

**Query** Consider the compound C/C=C/SC(=Nc1ccccc1)Nc1ccccc1 and give its measured growth inhibition.
**Result** -4

**Query** Please report the recorded growth inhibition for CCC(C)OC(=O)Nc1ccc(C)c(NC(=O)OC(C)CC)c1 (stereo not given) .
**Result** -1

**Query** # lookup: growth inhibition of CCCOC(=O)C(F)C(Br)C(=O)OCCC (stereo not given)
**Result** 40

**Query** growth inhibition lookup needed for COc1ccc(C(=O)C(CN(C)C)CN(C)C)cc1 , thanks.
**Result** -32

**Query** // query growth inhibition value for entry CN(C)c1ccc(N=Nc2ccncc2)cc1
**Result** 7

**Query** Query: growth inhibition; subject: CC1SC2(C(=O)Nc3ccc(Cl)cc32)N(c2ccc(Cl)cc2)C1=O (stereo not given)
**Result** -1

**Query** For the compound CCOC(=O)CC1(C(=O)OCC)c2[nH]c3ccccc3c2CCN1Cc1ccccc1 (stereo not given) , what growth inhibition is on record?
**Result** -4

**Query** Reported growth inhibition, compound Cc1csc(=S)n1OC(=O)NC1CCCCC1 : ____
**Result** 8

**Query** growth inhibition for Cc1ccc(S/C(=C\C(=O)O)c2ccccc2)cc1 ?
**Result** -6

Values from PubChem BioAssay (NCI)
